# assaySystem: hABHD6 (Homo sapiens (Human))
# Sequence (Q9BV23 whole entry): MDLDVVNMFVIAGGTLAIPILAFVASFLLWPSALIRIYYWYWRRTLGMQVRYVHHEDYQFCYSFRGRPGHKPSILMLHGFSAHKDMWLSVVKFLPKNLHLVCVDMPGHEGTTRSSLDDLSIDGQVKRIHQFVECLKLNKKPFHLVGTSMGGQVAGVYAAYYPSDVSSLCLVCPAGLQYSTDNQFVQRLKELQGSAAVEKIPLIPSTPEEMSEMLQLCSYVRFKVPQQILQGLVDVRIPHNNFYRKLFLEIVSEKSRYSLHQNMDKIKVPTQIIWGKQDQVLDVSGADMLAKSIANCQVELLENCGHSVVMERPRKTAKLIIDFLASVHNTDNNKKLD
experimentalEndpoint: IC50

molsmiles=O=C(OC(C(F)(F)F)C(F)(F)F)N1Cc2cccc(Br)c2C1 assaysystem="hABHD6 (Homo sapiens (Human))" experimentalendpoint=IC50 valueobserved="100 to 1000 nM"
molsmiles=O=C(OC(C(F)(F)F)C(F)(F)F)N1CC[C@]2(C1)C[C@H](OC(c1ccc(F)cc1)c1ccc(F)cc1)C2 assaysystem="hABHD6 (Homo sapiens (Human))" experimentalendpoint=IC50 valueobserved="> 1000 nM"
molsmiles=O=C(OC(C(F)(F)F)C(F)(F)F)N1Cc2cc(Br)cnc2C1 assaysystem="hABHD6 (Homo sapiens (Human))" experimentalendpoint=IC50 valueobserved="100 to 1000 nM"

# input for lookup
## Input Quote hABHD6 (Homo sapiens (Human)) IC50 for entry COc1ccc2c(c1)CN(C(=O)OC(C(F)(F)F)C(F)(F)F)C2 .
## Output 10 to 100 nM
